Recorded Ki values for a group of compounds are listed next.
# target.of.assay: α1A Human Adrenergic Receptor (Homo sapiens, UniProt P25100)
# Construct: The entire coding region of α1A (1719 bp); expressed in transfected cells
# Sequence (P25100 whole entry): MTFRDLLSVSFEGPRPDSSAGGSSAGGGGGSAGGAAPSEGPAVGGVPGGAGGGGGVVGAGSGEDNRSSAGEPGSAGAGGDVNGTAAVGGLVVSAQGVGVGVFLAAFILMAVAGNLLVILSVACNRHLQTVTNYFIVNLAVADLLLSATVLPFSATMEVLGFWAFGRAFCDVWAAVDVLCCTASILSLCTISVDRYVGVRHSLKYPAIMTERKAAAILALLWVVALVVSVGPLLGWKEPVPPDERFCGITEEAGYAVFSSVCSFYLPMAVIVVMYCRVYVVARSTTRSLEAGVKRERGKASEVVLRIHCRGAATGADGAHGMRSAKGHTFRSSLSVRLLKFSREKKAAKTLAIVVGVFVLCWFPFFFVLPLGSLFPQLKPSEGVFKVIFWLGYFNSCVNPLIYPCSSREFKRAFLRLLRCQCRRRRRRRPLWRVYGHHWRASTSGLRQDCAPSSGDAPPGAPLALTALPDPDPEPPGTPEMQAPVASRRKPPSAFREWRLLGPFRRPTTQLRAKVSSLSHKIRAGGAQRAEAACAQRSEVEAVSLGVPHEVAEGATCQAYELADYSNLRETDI
# assay.protocol: Radioligand binding, [3H]prazosin, cloned human α1A adrenergic receptor
# condition.context: PKi alpha-1 1a
Your answer is read as µM, so omit the unit and give the number.

Specify Ki for COC(=O)C1=C(C)NC(CCCCN)=C(C(=O)NCCCN2CCC(c3ccccc3)(c3ccccc3)CC2)C1c1ccc([N+](=O)[O-])cc1 (stereo not drawn) and stop.
0.295

Specify Ki for CCOC(=O)C1(c2ccccc2)CCN(CCCNC(=O)C2=C(COCCN)NC(CC)=C(C(=O)OC)C2c2ccc([N+](=O)[O-])cc2)CC1 (stereo not drawn) and stop.
0.251

Specify Ki for COC(=O)C1(c2ccccc2)CCN(CCCNC(=O)C2=C(CCCCN)NC(C)=C(C(N)=O)C2c2ccc([N+](=O)[O-])cc2)CC1 (stereo not drawn) and stop.
1.41

Specify Ki for CCC1=C(C(=O)OC)C(c2ccc([N+](=O)[O-])cc2)C(C(=O)NCCCN2CCC(C(=O)OC)(c3ccccc3)CC2)=C(COCCN=[N+]=[N-])N1 (stereo not drawn) and stop.
0.417

New cases:
Specify Ki for CCC1=C(C(=O)OC)C(c2ccc([N+](=O)[O-])cc2)C(C(=O)NCCCN2CCC(C(=O)OC)(c3ccccc3)CC2)=C(COCCN)N1 (stereo not drawn) and stop.
0.282

Specify Ki for CCC1=C(C(=O)NC)C(c2ccc([N+](=O)[O-])cc2)C(C(=O)NCCCN2CCC(c3ccccc3)(c3ccccc3)CC2)=C(COCCN)N1 (stereo not drawn) and stop.
1.62

Specify Ki for CCC1=C(C(N)=O)C(c2ccc([N+](=O)[O-])cc2)C(C(=O)NCCCN2CCC(C(=O)OC)(c3ccccc3)CC2)=C(CC)N1 (stereo not drawn) and stop.
3.31

Specify Ki for CCNC(=O)C1=C(CC)NC(COCCN)=C(C(=O)NCCCN2CCC(C(=O)OC)(c3ccccc3)CC2)C1c1ccc([N+](=O)[O-])cc1 (stereo not drawn) and stop.
4.07

###

Recorded Ki values for a group of compounds are listed next.
# target.of.assay: α1C Human Adrenergic Receptor (Homo sapiens, UniProt P35348)
# Construct: The entire coding region of α1C (1401 bp); expressed in transfected cells
# Sequence (P35348 whole entry): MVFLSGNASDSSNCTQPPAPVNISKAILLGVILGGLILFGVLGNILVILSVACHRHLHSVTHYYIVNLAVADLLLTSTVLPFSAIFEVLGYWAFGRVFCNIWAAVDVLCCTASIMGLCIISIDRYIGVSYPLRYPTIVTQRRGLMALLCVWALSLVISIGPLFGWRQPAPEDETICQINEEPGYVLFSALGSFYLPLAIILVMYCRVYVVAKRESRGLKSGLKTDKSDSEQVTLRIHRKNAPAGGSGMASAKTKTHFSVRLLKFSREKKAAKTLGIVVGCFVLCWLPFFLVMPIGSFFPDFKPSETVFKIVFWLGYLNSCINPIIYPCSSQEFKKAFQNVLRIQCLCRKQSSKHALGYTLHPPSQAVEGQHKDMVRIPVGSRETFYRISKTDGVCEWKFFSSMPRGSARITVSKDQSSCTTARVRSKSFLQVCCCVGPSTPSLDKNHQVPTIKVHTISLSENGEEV
# assay.protocol: Radioligand binding, [3H]prazosin, cloned human α1C adrenergic receptor
# condition.context: cloned human receptor in LM(tk-) cell membranes, SEM and n in lines below, read-out: pKi alpha-1 1c (converted)
Your answer is read as nM, so omit the unit and give the number.

Under α1C Human Adrenergic Receptor (Homo sapiens, UniProt P35348), report Ki for COC(=O)C1=C(C)NC(C)=C(C(=O)NCCCN2CCC(c3ccccc3)(c3ccccc3)CC2)C1c1ccc(Cl)c(Cl)c1 (stereo not shown)
1.86

Under α1C Human Adrenergic Receptor (Homo sapiens, UniProt P35348), report Ki for COC(=O)C1=C(C)NC(C)=C(C(=O)NCCCN2CCC(c3ccccc3)(c3ccccc3)CC2)C1c1ccc([N+](=O)[O-])c(C)c1 (stereo not shown)
9.55

Under α1C Human Adrenergic Receptor (Homo sapiens, UniProt P35348), report Ki for COC(=O)C1=C(C)NC(C)=C(C(=O)NCCCN2CCC(c3ccccc3)(c3ccccc3)CC2)C1c1ccc2ccccc2c1 (stereo not shown)
36.3

Now consider a different compound.
Under α1C Human Adrenergic Receptor (Homo sapiens, UniProt P35348), report Ki for COC(=O)C1=C(C)NC(C)=C(C(=O)NCCCN2CCC(c3ccccc3)CC2)C1c1ccncc1 (stereo not shown)
13.2
